# credit: patent US20250092065A1

# Test system: HTT mRNA
# assay-method-text: RT-qPCR splicing assay, HTT mRNA canonical (CJ) and alternative (AJ) junction
# Format: cell-based, human
# condition-set: Homo sapiens, HTT canonical junction mRNA, RT-qPCR; read-out: HTT CJ (decrease in CJ mRNA levels, IC50)
pIC50: −log10 of the molar value.
measured-parameter: pIC50

Observe how each entry below is paired with its result.
Problem: Quick check: pIC50 on HTT mRNA, item Cc1nc2c(C)c(O)c(-c3ccc4nc(N5CC[C@H](NC6(C)CC6)C5)ccc4n3)cc2o1 (single isomer, unassigned) ?
Solution: > 7.00

Problem: Quick check: pIC50 on HTT mRNA, item Cc1nc2c(C)c(O)c(-c3ccc4nc(N5CC[C@H](NCC6CC6)C5)ccc4n3)cc2o1 (single isomer, unassigned) ?
Solution: > 7.00

Problem: Quick check: pIC50 on HTT mRNA, item Cc1c(O)c(-c2ccc3nc(N4CC[C@H](NC5CC5)C4)ncc3n2)cc2cn(C)nc12 ?
Solution: > 7.00

As a next step, examine the compound that follows.
Problem: Quick check: pIC50 on HTT mRNA, item CN[C@@H]1CCN(c2cc3c(Cl)cc(-c4cc5cn(C)nc5c(C)c4O)nc3cc2C)C1 ?
Solution: < 5.00

----------
# System: MYB mRNA
# assay-method-text: RT-qPCR splicing assay, MYB mRNA canonical (CJ) and alternative (AJ) junction
# Assay type: cell-based, human
# condition-set: Homo sapiens, MYB canonical junction mRNA, RT-qPCR; read-out: MYB CJ (decrease in CJ mRNA levels, IC50)
pIC50: −log10 of the molar value.
pIC50 by entry:

Observe how each entry below is paired with its result.
Problem: Which value of pIC50 has been reported for COc1cc2nc(C)oc2cc1-c1ccc2nc(N3CCC(NC(C)(C)C)C3)ccc2n1 (stereo not shown) in the records?
Solution: 5.00 to 6.00

Problem: Which value of pIC50 has been reported for Cc1cc(-c2ccc3nc(N4CCC(NC(C)(C)C)C4)ccc3n2)nc2cn(C)nc12 (stereo not shown) in the records?
Solution: 5.00 to 6.00

Problem: Which value of pIC50 has been reported for Cn1cc2c(O)c(-c3ncc4nc(C5CCNCC5)ccc4n3)ccc2n1 in the records?
Solution: 5.00 to 6.00

Problem: Which value of pIC50 has been reported for Cc1cn2cc(-c3ccc4nc(N5CCC(NC(C)(C)C)C5)ccc4n3)cc(C)c2n1 (stereo not shown) in the records?
Solution: 6.00 to 7.00

Problem: Which value of pIC50 has been reported for CC(=O)c1nc(-c2cc3cn(C)nc3c(F)c2O)nc2ccc(N3C[C@@H](C)N[C@@H](C)C3)cc12 in the records?
Solution: > 7.00

***
Problem: Which value of pIC50 has been reported for Cn1cc2cc(-c3ncc4nc(C5CCNCC5)ccc4n3)c(O)c(F)c2n1 in the records?
Solution: > 7.00

Problem: Which value of pIC50 has been reported for Cc1cn2cc(-c3ccc4cc(N5C[C@H](C)N[C@@H](C)C5)cc(F)c4n3)cc(F)c2n1 (single isomer, unassigned) [Compound 705, 2,2,2-trifluoroacetate] in the records?
Solution: > 7.00

----------
# System: HTT mRNA
# assay-method-text: RT-qPCR splicing assay, HTT mRNA canonical (CJ) and alternative (AJ) junction
# Assay type: cell-based, human
# condition-set: Homo sapiens, HTT canonical junction mRNA, RT-qPCR; read-out: HTT CJ (decrease in CJ mRNA levels, IC50)
measured-parameter: IC50

Observe how each entry below is paired with its result.
Problem: Which value of IC50 has been reported for Cc1nc2cc(O)c(-c3ccc4nc(N5CC[C@@H](NC6(C)CC6)C5)ccc4n3)cc2o1 in the records?
Solution: < 100 nM

Problem: Which value of IC50 has been reported for Cc1nc2cc(O)c(-c3ccc4nc(N5CCN[C@@H](C6CC6)C5)ccc4n3)cc2o1 in the records?
Solution: 100 to 1000 nM

Problem: Which value of IC50 has been reported for CCN[C@H]1CCN(c2ccc3nc(-c4cc5cn(C)nc5cc4O)ccc3n2)C1 in the records?
Solution: < 100 nM

Problem: Which value of IC50 has been reported for Cc1nc2cc(O)c(-c3ccc4nc(N5CCN6CCCC6C5)ccc4n3)cc2o1 (centres unmarked) in the records?
Solution: 100 to 1000 nM

Problem: Which value of IC50 has been reported for CCN(CC)C1CCN(c2ccc3nc(-c4cc5cn(C)nc5c(F)c4O)ncc3c2)CC1 in the records?
Solution: 100 to 1000 nM

Problem: Which value of IC50 has been reported for CNC(=O)c1nc(-c2cc3cn(C)nc3c(C)c2O)nc2ccc(N3CC[C@H](NC)C3)cc12 in the records?
Solution: < 100 nM

***
Problem: Which value of IC50 has been reported for Cc1nc2c(C)c(O)c(-c3ccc4nc(N5CC[C@H](N[C@H]6C[C@@H](F)C6)C5)ccc4n3)cc2o1 (stereo in doubt) in the records?
Solution: < 100 nM

Problem: Which value of IC50 has been reported for CNC1CCN(c2ccc3nc(-c4cc(C#N)c5nc(C)cn5c4)ncc3n2)C1 (centres unmarked) in the records?
Solution: 100 to 1000 nM

----------
# System: MYB mRNA
# assay-method-text: RT-qPCR splicing assay, MYB mRNA canonical (CJ) and alternative (AJ) junction
# Format: cell-based, human
# condition-set: Homo sapiens, MYB canonical junction mRNA, RT-qPCR; read-out: MYB CJ (decrease in CJ mRNA levels, IC50)
IC50 by entry:

Problem: Which value of IC50 has been reported for Cc1nc2cc(O)c(-c3ccc4nc(N5C[C@@H](C)N[C@@H](C6CC6)C5)ccc4n3)cc2o1 [Compound 419] in the records?
Solution: 100 to 1000 nM

Problem: Which value of IC50 has been reported for Cc1nc2c(C)c(O)c(-c3ccc4nc(N5CC[C@H](NC(C)C)C5)ccc4n3)cc2o1 (single isomer, unassigned) [Compound 314] in the records?
Solution: < 100 nM

Problem: Which value of IC50 has been reported for Cc1c(O)c(-c2ncc3cc(N4C[C@@H](C)N[C@@H](C)C4)ccc3n2)cc2cn(C)nc12 [Compound 525] in the records?
Solution: < 100 nM

Problem: Which value of IC50 has been reported for Cn1cc2cc(-c3ccc4nc(N5CCC(NC67CC(O)(C6)C7)C5)ccc4n3)c(O)cc2n1 (centres unmarked) [Compound 341] in the records?
Solution: 100 to 1000 nM

Problem: Which value of IC50 has been reported for CNC(=O)c1nc(-c2cc3cn(C)nc3cc2O)nc2ccc(N3C[C@@H](C)N[C@H](C)C3)cc12 (single isomer, unassigned) [Compound 677] in the records?
Solution: < 100 nM

Problem: Which value of IC50 has been reported for C[C@H]1CN(c2ccc3nc(-c4cc5cn(C)nc5c(F)c4O)ncc3c2)C[C@H](C)N1 [Compound 744] in the records?
Solution: < 100 nM

Problem: Which value of IC50 has been reported for Cc1nc2cc(O)c(-c3ccc4cc(N5CC[C@@H](NC(C)(C)C)C5)ncc4n3)cc2o1 [Compound 417] in the records?
Solution: 100 to 1000 nM

Problem: Which value of IC50 has been reported for Cc1nc2c(C)c(O)c(-c3ccc4nc(N5CC[C@@H](NC6(CF)CC6)C5)ccc4n3)cc2o1 (single isomer, unassigned) [Compound 379] in the records?
Solution: 100 to 1000 nM

Problem: Which value of IC50 has been reported for Cc1c(O)c(-c2ccc3nc(N4CCC(NC5(CF)CC5)C4)ccc3n2)cc2cn(C)nc12 (centres unmarked) [Compound 360] in the records?
Solution: < 100 nM

Problem: Which value of IC50 has been reported for Cc1c(O)c(-c2nc(N(C)C)c3cc(N4CCNCC4)ccc3n2)cc2cn(C)nc12 [Compound 509] in the records?
Solution: > 10000 nM

As a next step, examine the compound that follows.
Problem: Which value of IC50 has been reported for Cc1nc2cc(O)c(-c3ccc4nc(C5CCNCC5)ccc4n3)cc2s1 [Compound 148] in the records?
Solution: 100 to 1000 nM

----------
# Test system: HTT mRNA
# assay-method-text: RT-qPCR splicing assay, HTT mRNA canonical (CJ) and alternative (AJ) junction
# Assay type: cell-based, human
# condition-set: Homo sapiens, RT-qPCR, HTT canonical junction mRNA decrease; read-out: HTT CJ (decrease in canonical junction mRNA, IC50)
IC50 by entry:

Observe how each entry below is paired with its result.
Problem: Quick check: IC50 on HTT mRNA, item Cc1nc(-c2cc3cn(C)nc3cc2O)nc2ccc(N3C[C@@H](C)N[C@@H](C)C3)cc12 [Compound 782, 2,2,2-trifluoroacetate] ?
Solution: 1000 to 10000 nM

Problem: Quick check: IC50 on HTT mRNA, item Cc1cn2cc(-c3ncc4cc(N5C[C@H](C)N[C@@H](C)C5)ccc4n3)cc(F)c2n1 ?
Solution: 100 to 1000 nM

Problem: Quick check: IC50 on HTT mRNA, item Cn1cc2cc(-c3ncc4cc(N5CC[C@H](NC(C)(C)C)C5)ccc4n3)c(O)c(F)c2n1 ?
Solution: 1000 to 10000 nM

Problem: Quick check: IC50 on HTT mRNA, item Cc1c(O)c(-c2ncc3cc(N4CCNC5(CC5)C4)ccc3n2)cc2cn(C)nc12 ?
Solution: 100 to 1000 nM

Problem: Quick check: IC50 on HTT mRNA, item C[C@@H]1CN(c2ccc3nc(-c4cc(F)c5nc(CF)cn5c4)ncc3c2)C[C@H](C)N1 ?
Solution: 1000 to 10000 nM

Problem: Quick check: IC50 on HTT mRNA, item Cc1nc(-c2cc3cn(C)nc3c(C)c2O)nc2ccc(N3CCNC4(CC4)C3)cc12 ?
Solution: 1000 to 10000 nM

As a next step, examine the compound that follows.
Problem: Quick check: IC50 on HTT mRNA, item Cc1cn2cc(-c3ncc4cc(N5C[C@@H](C)N[C@@H](C)C5)ccc4n3)cc(F)c2n1 ?
Solution: 1000 to 10000 nM
